# target: Dual specificity protein kinase CLK1 (Homo sapiens)
# Sequence (P49759 whole entry): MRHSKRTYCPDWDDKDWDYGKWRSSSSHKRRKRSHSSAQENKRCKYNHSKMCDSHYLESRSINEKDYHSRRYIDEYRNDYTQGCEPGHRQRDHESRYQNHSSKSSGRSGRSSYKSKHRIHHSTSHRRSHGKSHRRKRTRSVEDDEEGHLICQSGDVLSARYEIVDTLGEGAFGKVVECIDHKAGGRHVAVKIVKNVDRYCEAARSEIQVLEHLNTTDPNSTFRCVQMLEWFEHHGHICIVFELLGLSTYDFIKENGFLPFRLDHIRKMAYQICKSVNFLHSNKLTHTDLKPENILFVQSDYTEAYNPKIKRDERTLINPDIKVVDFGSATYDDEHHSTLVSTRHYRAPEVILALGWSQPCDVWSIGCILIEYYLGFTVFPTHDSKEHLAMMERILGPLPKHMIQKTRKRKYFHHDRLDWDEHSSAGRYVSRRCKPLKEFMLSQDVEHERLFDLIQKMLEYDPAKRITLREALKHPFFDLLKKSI
# procedure_details: biochemical
# Assay type: cell-based, Sf9
# condition_parameters: read-out: IC50
observable: IC50 (nM)

Some solved entries appear below for comparison.
compound | unit_annotation | IC50
c1ccc(-c2ccc3[nH]ncc3c2)cc1 | nM | 24.2
O=C1NC(=Nc2c(Cl)cccc2Cl)S/C1=C\c1ccc2nccnc2c1 | nM | 13.6
Cc1ccc([N+](=O)[O-])cc1S(=O)(=O)N(C)/N=C/c1cnc2ccc(Br)cn12 | nM | 30.8

[I] COc1ccc2c3ccnc(Cl)c3n(CC#N)c2c1
[II] COC1=CC2C(=O)NC3=Cc4ccc(OC)cc4C(=C1OC)C32 (stereo not drawn)
**Query** Which of the two items, I and II , has the greater recorded IC50? Return value: the label identifying the chosen record.
**Result** I
(I: 88.3 nM, II: 31.8 nM)

[I] CCN1CCN(Cc2ccc(Nc3ncc(F)c(-c4cc(F)c5nc(C)n(C(C)C)c5c4)n3)nc2)CC1
[II] Oc1ccc(-c2cnc3[nH]cc(-c4ccc(F)cc4)c3c2)cc1O
**Query** Lower value for measured IC50? Options: I , II Return value: the label identifying the chosen record.
**Result** I

[P] CC(C)Oc1ccc(F)c(-c2cnc(N)c(C(=O)Nc3cnccc3N3CCC[C@@H](C(=O)O)C3)n2)c1
[Q] c1cc(OCCN2CCCCC2)cc(-c2n[nH]c3ccc(-c4nc[nH]n4)cc23)c1
**Query** Lower value for measured IC50? Options: P , Q Return value: the label identifying the chosen record.
**Result** P
(P: 28.3 nM, Q: 2850 nM)

====

# target: Dual specificity protein kinase CLK3 (Homo sapiens, UniProt P49761)
# Sequence (P49761 whole entry): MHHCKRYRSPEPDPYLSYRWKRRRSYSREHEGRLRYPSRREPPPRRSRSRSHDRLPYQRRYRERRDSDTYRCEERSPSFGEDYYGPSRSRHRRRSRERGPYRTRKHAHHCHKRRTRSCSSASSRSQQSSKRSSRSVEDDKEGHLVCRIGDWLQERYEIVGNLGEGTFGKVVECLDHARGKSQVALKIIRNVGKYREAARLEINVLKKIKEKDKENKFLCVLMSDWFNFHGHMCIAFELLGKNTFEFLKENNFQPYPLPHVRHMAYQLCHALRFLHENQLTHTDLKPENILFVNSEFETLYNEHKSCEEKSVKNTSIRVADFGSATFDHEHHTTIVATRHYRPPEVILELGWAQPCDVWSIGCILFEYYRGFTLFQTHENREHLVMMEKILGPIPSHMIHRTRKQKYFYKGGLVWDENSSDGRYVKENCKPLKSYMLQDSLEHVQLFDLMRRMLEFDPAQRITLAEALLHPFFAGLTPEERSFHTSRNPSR
# procedure_details: biochemical
observable: IC50 (µM)

compound | target | unit_annotation | reported
COc1ccc2c(c1)[nH]c1c(C)nccc12 [HARMINE] | Dual specificity protein kinase CLK3 (Homo sapiens, UniProt P49761) | µM | 8.81

[P] CCNc1cc(Nc2ccc(C(=O)N3CCC(N4CCOCC4)CC3)cc2OC)nc2[nH]cc(C(F)(F)F)c12
[Q] COC1=CC2C(=O)NC3=Cc4ccc(OC)cc4C(=C1OC)C32 (centres undefined)
[R] CCN1/C(=C/C(C)=O)Sc2ccc(O)cc21
**Query** Order the 3 compounds from highest to lowest IC50. State the ranking by listing the labels in the requested order.
**Result** R, P, Q
(R: 4.79 µM, P: 2.05 µM, Q: 0.64 µM)

====

This section presents compounds with their documented IC50 values.
# target: UniProtKB Q13627
The figure you give is taken to be in nM; do not add the unit.

compound | IC50 / nM
O=C(O[C@@H]1Cc2c(O)cc(O)cc2O[C@@H]1c1cc(O)c(O)c(O)c1)c1cc(O)c(O)c(O)c1 [EPIGALOCATECHIN GALLATE] | 766

Let us examine a further case.
**Query** GET /values?readout=IC50&system=UniProtKB Q13627&item= CN1CCN(C(=O)C(C)(C)c2ccc(C(=O)Cc3cn4cc(-c5ccncc5)ccc4n3)cc2)CC1
**Result** 72.8

====

This section presents compounds with their documented pIC50 values.
# target: Cyclin-dependent kinase 5/CDK5 activator 1 (Homo sapiens, UniProt Q00535)
# Sequence (Q00535 whole entry): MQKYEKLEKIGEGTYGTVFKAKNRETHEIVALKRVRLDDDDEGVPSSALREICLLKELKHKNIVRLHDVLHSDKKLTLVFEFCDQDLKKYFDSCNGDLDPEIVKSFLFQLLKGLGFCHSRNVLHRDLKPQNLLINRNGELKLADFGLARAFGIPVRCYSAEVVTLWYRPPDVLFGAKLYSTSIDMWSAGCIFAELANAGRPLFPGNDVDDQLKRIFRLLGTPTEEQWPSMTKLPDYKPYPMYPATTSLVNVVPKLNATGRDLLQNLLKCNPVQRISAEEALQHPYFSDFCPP
# Sequence (Q15078 whole entry, further chain): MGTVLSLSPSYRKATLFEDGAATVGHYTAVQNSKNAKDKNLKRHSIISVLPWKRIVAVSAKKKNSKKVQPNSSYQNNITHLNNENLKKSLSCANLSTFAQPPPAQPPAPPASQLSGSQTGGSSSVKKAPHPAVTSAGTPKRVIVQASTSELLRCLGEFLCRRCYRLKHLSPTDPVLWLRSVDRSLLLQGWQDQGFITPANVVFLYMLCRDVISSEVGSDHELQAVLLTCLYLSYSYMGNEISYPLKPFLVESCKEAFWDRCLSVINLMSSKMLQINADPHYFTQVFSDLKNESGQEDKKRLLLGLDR
# procedure_details: biochemical
pIC50: −log10 of the molar value.

**Query** GET /values?readout=pIC50&system=Cyclin-dependent kinase 5/CDK5 activator 1 (Homo sapiens, UniProt Q00535)&item= CN1CCN(C(=O)C(C)(C)c2ccc(C(=O)Cc3cn4cc(-c5ccncc5)ccc4n3)cc2)CC1
**Result** < 5.00

**Query** GET /values?readout=pIC50&system=Cyclin-dependent kinase 5/CDK5 activator 1 (Homo sapiens, UniProt Q00535)&item= c1ccc(-c2ccc3[nH]ncc3c2)cc1
**Result** 5.75

**Query** GET /values?readout=pIC50&system=Cyclin-dependent kinase 5/CDK5 activator 1 (Homo sapiens, UniProt Q00535)&item= CCN1/C(=C/C(C)=O)Sc2ccc(O)cc21
**Result** < 5.00

**Query** GET /values?readout=pIC50&system=Cyclin-dependent kinase 5/CDK5 activator 1 (Homo sapiens, UniProt Q00535)&item= CN(C)c1nccc(-c2cnn3ncccc23)n1
**Result** 5.01

**Query** GET /values?readout=pIC50&system=Cyclin-dependent kinase 5/CDK5 activator 1 (Homo sapiens, UniProt Q00535)&item= Cn1cc(-c2ccc3occ(-c4cccc(-c5ccncc5)c4)c3n2)cn1
**Result** < 5.00

**Query** GET /values?readout=pIC50&system=Cyclin-dependent kinase 5/CDK5 activator 1 (Homo sapiens, UniProt Q00535)&item= COc1ccc2nc3ccc(OC)cc3c(SCCCN)c2c1
**Result** < 5.00

**Query** GET /values?readout=pIC50&system=Cyclin-dependent kinase 5/CDK5 activator 1 (Homo sapiens, UniProt Q00535)&item= O=C(Nc1ccc2[nH]ncc2c1)c1csc(Nc2ccccc2)n1
**Result** < 5.00

**Query** GET /values?readout=pIC50&system=Cyclin-dependent kinase 5/CDK5 activator 1 (Homo sapiens, UniProt Q00535)&item= COC(=N)c1nc2ccc3ncnc(Nc4ccc(OC)cc4F)c3c2s1
**Result** < 5.00

**Query** GET /values?readout=pIC50&system=Cyclin-dependent kinase 5/CDK5 activator 1 (Homo sapiens, UniProt Q00535)&item= Oc1ccc(-c2cnc3[nH]cc(-c4ccc(F)cc4)c3c2)cc1O
**Result** < 5.00

**Query** GET /values?readout=pIC50&system=Cyclin-dependent kinase 5/CDK5 activator 1 (Homo sapiens, UniProt Q00535)&item= Cc1cc(C(=O)NC2Nc3cccc(C)c3N2[C@H]2CCCCN(C(=O)/C=C/CN(C)C)C2)ccn1 (stereo partly specified)
**Result** < 5.00

**Query** GET /values?readout=pIC50&system=Cyclin-dependent kinase 5/CDK5 activator 1 (Homo sapiens, UniProt Q00535)&item= CN1Cc2nn(C)c(C#N)c2-c2cnc3[nH]cc(c3c2)-c2cn(nc2C(F)(F)F)CCCC1=O
**Result** < 5.00

**Query** GET /values?readout=pIC50&system=Cyclin-dependent kinase 5/CDK5 activator 1 (Homo sapiens, UniProt Q00535)&item= Cc1nc2ccc(-c3cc(N)nc(N)c3)nc2n1CC(F)(F)F
**Result** 6.38

**Query** GET /values?readout=pIC50&system=Cyclin-dependent kinase 5/CDK5 activator 1 (Homo sapiens, UniProt Q00535)&item= Cc1nc2ccc(-c3cc(N)nc(N)c3)nc2n1C(C)C
**Result** 6.56

====

# target: UniProt:P49841
# Sequence (P49841 whole entry): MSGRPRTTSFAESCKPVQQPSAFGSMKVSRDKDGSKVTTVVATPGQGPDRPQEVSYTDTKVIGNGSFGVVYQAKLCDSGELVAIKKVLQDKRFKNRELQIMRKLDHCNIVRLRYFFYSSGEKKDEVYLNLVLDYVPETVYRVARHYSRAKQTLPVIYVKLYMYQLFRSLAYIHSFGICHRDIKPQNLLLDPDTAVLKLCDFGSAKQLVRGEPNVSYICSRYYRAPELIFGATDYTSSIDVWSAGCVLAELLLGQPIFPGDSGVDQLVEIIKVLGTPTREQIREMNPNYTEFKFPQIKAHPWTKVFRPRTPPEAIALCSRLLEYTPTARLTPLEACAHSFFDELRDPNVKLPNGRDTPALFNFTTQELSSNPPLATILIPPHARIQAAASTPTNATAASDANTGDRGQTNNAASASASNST
# procedure_details: biochemical
# Assay type: cell-based, Sf9
pIC50: −log10 of the molar value.
observable: pIC50

compound | target | pIC50
c1ccc(-c2ccc3[nH]ncc3c2)cc1 | UniProt:P49841 | 5.12
COC(=N)c1nc2ccc3ncnc(Nc4ccc(OC)cc4F)c3c2s1 | UniProt:P49841 | 5.27

[P] Cc1cc(C(=O)NC2Nc3cccc(C)c3N2[C@H]2CCCCN(C(=O)/C=C/CN(C)C)C2)ccn1 (some centres undefined)
[Q] O=C1NC(=Nc2c(Cl)cccc2Cl)S/C1=C\c1ccc2nccnc2c1
**Query** Which of the two items, P and Q , has the greater recorded pIC50? Return value: the label identifying the chosen record.
**Result** Q

====

# target: Dual specificity protein kinase CLK3 (Homo sapiens, UniProt P49761)
# procedure_details: biochemical
pIC50: −log10 of the molar value.
observable: pIC50

Some solved entries appear below for comparison.
smiles_record | reported
Cc1nc2ccc(-c3cc(N)nc(N)c3)nc2n1CC(F)(F)F | 5.96
c1ccc(CNc2nc(Nc3cc(C4CC4)[nH]n3)c3sccc3n2)cc1 | 5.72
CN(C)c1nccc(-c2cnn3ncccc23)n1 | 5.53
O=C1NC(Nc2ccccc2)=N/C1=C\c1ccc2c(c1)OCO2 | 5.66
Oc1ccc(-c2n[nH]c3ncc(-c4ccc(O)c(O)c4)cc23)cc1 | 6.68

[a] Cc1nc2ccc(-c3cc(N)nc(N)c3)nc2n1C(C)C
[b] COc1ccc2nc3ccc(OC)cc3c(SCCCN)c2c1
**Query** Lower value for measured pIC50? Options: a , b Return value: the label identifying the chosen record.
**Result** b
(b: 5.13, a: 5.92)

====

# target: UniProt:Q92630
# Sequence (Q92630 whole entry): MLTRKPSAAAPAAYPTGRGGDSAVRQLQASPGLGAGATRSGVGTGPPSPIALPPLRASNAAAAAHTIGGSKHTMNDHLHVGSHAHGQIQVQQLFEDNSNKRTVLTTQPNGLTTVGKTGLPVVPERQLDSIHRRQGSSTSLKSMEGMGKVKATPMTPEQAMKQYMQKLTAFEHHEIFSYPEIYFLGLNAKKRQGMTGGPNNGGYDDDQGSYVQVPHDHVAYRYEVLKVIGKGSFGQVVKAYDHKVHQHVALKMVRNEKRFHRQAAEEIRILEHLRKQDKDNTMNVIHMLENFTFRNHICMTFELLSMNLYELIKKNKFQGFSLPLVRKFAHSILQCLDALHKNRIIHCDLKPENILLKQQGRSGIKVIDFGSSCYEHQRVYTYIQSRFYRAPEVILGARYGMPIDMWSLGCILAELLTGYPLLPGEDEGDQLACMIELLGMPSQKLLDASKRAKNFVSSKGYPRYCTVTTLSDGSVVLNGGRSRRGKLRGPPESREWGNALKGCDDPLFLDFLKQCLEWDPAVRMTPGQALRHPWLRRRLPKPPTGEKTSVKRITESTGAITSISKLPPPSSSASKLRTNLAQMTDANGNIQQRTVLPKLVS
# procedure_details: biochemical
observable: IC50 (nM)

smiles_record | observable | reported
COc1ccc2c(c1)[nH]c1c(C)nccc12 | IC50 | 3170
COc1ccc2c3ccnc(Cl)c3n(CC#N)c2c1 | IC50 | 813
COc1cc(/C=C/C(=O)CC(=O)/C=C/c2ccc(O)c(OC)c2)ccc1O | IC50 | 1060
COc1cc(N2CCN(C)CC2)ccc1Nc1nccc(-c2cn(C)c3cnccc23)n1 | IC50 | 764

[1] c1ccc(-c2ccc3[nH]ncc3c2)cc1
[2] Cn1cc(-c2ccc3cnc(NC(=O)C4CCN(S(C)(=O)=O)CC4)cc3c2)cn1
[3] Cc1nc2ccc(-c3cc(N)nc(N)c3)nc2n1CC(F)(F)F
**Query** Please put the entries in order of rising IC50. State the ranking by listing the labels in the requested order.
**Result** 3, 2, 1
